experimental.target: HIPK1 (human) (UniProt Q86Z02)
Sequence (Q86Z02 whole entry, looked up): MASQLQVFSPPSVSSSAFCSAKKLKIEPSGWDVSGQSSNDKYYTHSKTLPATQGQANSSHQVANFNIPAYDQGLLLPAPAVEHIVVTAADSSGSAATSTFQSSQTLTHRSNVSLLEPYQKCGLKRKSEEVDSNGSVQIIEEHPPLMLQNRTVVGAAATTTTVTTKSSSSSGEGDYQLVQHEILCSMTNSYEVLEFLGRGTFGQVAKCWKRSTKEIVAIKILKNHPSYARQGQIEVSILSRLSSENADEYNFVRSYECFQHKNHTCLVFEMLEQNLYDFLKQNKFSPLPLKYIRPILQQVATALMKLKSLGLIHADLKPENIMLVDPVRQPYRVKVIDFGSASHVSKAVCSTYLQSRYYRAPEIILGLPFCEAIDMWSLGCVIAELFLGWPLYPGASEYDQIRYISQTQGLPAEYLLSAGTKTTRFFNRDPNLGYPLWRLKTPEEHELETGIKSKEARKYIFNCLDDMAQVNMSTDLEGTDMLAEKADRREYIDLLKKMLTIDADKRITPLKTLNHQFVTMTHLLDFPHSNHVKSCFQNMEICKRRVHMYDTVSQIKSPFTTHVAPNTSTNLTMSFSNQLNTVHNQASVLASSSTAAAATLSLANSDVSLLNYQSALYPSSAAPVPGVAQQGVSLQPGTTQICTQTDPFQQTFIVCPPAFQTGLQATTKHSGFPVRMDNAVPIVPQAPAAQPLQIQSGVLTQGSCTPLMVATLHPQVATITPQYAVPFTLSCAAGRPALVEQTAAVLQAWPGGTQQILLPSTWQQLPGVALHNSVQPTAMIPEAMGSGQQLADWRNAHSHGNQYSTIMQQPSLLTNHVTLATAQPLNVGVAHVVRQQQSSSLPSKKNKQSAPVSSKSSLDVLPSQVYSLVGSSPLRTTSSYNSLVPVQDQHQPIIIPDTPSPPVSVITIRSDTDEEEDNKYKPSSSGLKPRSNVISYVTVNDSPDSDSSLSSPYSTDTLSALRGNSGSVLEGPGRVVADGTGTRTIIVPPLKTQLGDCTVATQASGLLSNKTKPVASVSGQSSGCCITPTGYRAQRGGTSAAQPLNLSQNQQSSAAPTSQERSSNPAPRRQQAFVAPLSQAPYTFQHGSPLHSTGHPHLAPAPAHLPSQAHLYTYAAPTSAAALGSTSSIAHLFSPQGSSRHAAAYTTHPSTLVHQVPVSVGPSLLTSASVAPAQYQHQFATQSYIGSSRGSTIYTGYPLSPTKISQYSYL
assay.text: Caliper, Mobility shift assay off-chip
setup.conditions: compound 0.02 µM
value.kind: inhibition (%)

For orientation, consider the following solved cases.
CNC(=O)c1ccccc1Sc1ccc2c(/C=C/c3ccccn3)n[nH]c2c1 | -0.2
COc1cc2c(Oc3ccc4[nH]c(C)cc4c3F)ncnc2cc1OCCCN1CCCC1 | -5.7

A = Cc1ccc(Nc2nccc(N(C)c3ccc4c(C)n(C)nc4c3)n2)cc1S(N)(=O)=O
B = CNC(=O)c1cc(Oc2ccc(NC(=O)Nc3ccc(Cl)c(C(F)(F)F)c3)cc2)ccn1
Enquiry: Field: entry with larger inhibition (options A / B ). Kindly give the label for the entry you pick.
Return: A

Value source: the kinase profiling compilation of Christmann-Franck et al. (2016)
